- target or test system: EGFR enzyme (Homo sapiens, UniProt P00533)
- Sequence (P00533 25-1210): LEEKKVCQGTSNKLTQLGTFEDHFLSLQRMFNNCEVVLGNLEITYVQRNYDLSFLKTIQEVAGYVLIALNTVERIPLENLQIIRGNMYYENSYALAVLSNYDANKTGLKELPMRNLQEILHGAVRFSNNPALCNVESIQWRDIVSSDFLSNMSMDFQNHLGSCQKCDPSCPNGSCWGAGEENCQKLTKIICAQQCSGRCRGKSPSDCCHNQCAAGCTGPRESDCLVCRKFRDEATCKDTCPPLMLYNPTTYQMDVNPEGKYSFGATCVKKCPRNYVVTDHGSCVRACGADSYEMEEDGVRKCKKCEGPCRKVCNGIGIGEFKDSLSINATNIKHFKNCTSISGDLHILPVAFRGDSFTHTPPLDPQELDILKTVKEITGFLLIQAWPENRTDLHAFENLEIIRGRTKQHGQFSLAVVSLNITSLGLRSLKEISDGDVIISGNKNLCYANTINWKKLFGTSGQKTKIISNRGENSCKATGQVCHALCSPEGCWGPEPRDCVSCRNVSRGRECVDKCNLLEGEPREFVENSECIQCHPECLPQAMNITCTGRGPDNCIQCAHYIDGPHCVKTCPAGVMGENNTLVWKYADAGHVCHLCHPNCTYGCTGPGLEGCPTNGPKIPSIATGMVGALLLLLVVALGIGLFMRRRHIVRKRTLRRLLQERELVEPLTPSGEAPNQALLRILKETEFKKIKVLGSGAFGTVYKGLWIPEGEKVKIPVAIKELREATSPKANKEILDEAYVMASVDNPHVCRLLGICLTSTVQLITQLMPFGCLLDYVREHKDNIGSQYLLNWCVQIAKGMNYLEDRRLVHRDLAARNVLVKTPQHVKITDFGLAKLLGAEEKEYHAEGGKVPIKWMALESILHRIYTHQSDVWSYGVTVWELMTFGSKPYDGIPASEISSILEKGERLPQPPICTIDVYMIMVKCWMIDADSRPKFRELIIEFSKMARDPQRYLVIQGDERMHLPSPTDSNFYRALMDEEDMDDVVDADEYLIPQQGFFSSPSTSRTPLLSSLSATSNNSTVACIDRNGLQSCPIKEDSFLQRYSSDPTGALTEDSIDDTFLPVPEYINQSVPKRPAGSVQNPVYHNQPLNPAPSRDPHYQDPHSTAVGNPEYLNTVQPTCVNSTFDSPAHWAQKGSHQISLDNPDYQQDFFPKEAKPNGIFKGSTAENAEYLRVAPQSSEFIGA
- test details: EGFR kinase inhibition assay
- Format: biochemical
measure: pIC50
Value format note: pIC50 is -log10 of concentration (mol/L); just state the number.

GET /value?item= NS(=O)(=O)c1ccc(NC(=O)CSc2nnc(NC(=O)c3ccc(Cl)cc3)s2)cc1 [3j] &field=pIC50 returns 7.70

====

- target or test system: COX-2 enzyme (Homo sapiens, UniProt P35354)
- test details: biochemical
measure: pIC50
// pIC50 here means minus log10 of the molar concentration (mol/L)

# compound, pIC50
rows = [
    ("O=C(CSc1nnc(NC(=O)c2ccc(Cl)cc2)s1)Nc1ccccc1 [3f]", 6.06),
]

Continue with the next compound.
# pIC50 of O=C(CSc1nnc(NC(=O)c2ccc(Cl)c(Cl)c2)s1)Nc1ccccc1 [3a] = 5.62

====

Entries and their IC50 values follow.
- System: NIH3T3 cells
- test details: MTT cytotoxicity test, NIH3T3 cell line
- Format: cell-based
- condition summary: Mus musculus, NIH3T3, read-out: IC50 (μM) NIH3T3

Reported IC50 for NS(=O)(=O)c1ccc(NC(=O)CSc2nnc(NC(=O)c3ccc(Cl)c(Cl)c3)s2)cc1 was 70.8 µM

// field: IC50; key: O=C(CSc1nnc(NC(=O)c2ccc(Cl)cc2)s1)Nc1ccccc1 ; value = > 100 µM

Looking up NS(=O)(=O)c1ccc(NC(=O)CSc2nnc(NC(=O)c3ccc(Cl)cc3)s2)cc1 , I found its IC50 recorded as 85.6 µM

The recorded IC50 for entry COc1ccc(C(=O)Nc2nnc(SCC(=O)Nc3ccc(Cl)cc3)s2)cc1 equals > 100 µM

In plain terms, O=C(CSc1nnc(NC(=O)c2ccc(Cl)c(Cl)c2)s1)Nc1ccc(Cl)cc1 has a documented IC50 of > 100 µM

IC50 for COc1cccc2c1C(=O)c1c(O)c3c(c(O)c1C2=O)C[C@@](O)(C(=O)CO)C[C@@H]3O[C@H]1C[C@H](N)[C@H](O)[C@H](C)O1 [doxorubicin, reference compound] is > 100 µM

IC50 measured on O=C(CSc1nnc(NC(=O)c2ccc(Cl)cc2)s1)Nc1ccc(Cl)cc1 = 24.9 µM

Looking up O=C(CSc1nnc(NC(=O)c2ccc(Cl)c(Cl)c2)s1)Nc1ccccc1 , I found its IC50 recorded as > 100 µM

====

Overview of reported IC50 across a group of compounds:
- target or test system: COX-2 enzyme (Homo sapiens, UniProt P35354)
- Sequence (P35354 18-604): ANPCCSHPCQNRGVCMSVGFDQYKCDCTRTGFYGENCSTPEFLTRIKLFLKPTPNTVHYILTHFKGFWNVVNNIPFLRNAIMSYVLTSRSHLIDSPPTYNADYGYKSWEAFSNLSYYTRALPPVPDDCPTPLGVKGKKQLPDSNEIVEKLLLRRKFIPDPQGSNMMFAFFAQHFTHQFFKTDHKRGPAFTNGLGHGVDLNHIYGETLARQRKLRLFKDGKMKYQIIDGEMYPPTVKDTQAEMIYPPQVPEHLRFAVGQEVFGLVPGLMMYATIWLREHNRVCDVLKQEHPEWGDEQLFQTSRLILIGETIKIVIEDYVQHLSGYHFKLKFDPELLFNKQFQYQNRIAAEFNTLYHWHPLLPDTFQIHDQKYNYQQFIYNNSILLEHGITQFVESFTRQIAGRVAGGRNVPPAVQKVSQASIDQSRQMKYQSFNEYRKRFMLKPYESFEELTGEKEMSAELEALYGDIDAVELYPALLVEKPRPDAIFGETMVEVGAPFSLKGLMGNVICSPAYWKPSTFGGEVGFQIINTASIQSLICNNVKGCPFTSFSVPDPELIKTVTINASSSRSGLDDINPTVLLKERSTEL
- test details: biochemical

Example entries begin here.
# structure smiles string, IC50
data = [
    ("COc1ccc(C(=O)Nc2nnc(SCC(=O)Nc3ccc(C(F)(F)F)cc3)s2)cc1", "> 100 µM"),
    ("NS(=O)(=O)c1ccc(NC(=O)CSc2nnc(NC(=O)c3ccc(Cl)c(Cl)c3)s2)cc1", "0.32 µM"),
]

Consider now this further compound.
So for O=C(CSc1nnc(NC(=O)c2ccc(F)cc2)s1)Nc1ccccc1 , the logged IC50 turned out to be > 1000 µM
